testTarget: ALK5 (Homo sapiens, UniProt P36897)
Sequence (P36897 34-503): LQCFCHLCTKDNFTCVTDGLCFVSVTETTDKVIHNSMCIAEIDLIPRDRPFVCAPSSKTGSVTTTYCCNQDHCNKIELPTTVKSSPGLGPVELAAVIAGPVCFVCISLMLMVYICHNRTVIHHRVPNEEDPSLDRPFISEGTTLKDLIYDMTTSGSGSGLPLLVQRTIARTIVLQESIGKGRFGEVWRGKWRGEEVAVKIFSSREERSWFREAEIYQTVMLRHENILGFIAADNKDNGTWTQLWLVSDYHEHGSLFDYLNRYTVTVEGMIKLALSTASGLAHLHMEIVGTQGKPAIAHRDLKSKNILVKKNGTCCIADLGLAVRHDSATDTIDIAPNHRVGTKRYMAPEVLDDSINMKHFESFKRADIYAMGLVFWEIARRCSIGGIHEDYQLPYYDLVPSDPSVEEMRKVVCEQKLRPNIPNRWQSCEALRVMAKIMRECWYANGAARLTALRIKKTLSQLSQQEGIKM
experiment: recombinant kinase assays
Assay type: biochemical
measurementParameters: Steady state equation; read-out: Ki (nM) (Steady state equation)
Consider the following compounds; for each one, report its Ki.

| smilesInput | observable | reading |
| --- | --- | --- |
| CNCCOc1ccc(-c2cc(-c3c[nH]nc3-c3cccc(C)n3)ccn2)cc1 | Ki | 2.25 nM |

Attention now shifts to the item below.
(Q) Which Ki value belongs to `CCc1cc(-c2ccc3ncnc(N)c3c2)n(-c2cccc(C)n2)n1` ?
(A) 18.4 nM
